src = patent US20090035313A1

# Tested on: TNFα release from human peripheral blood mononuclear cells
# Assay Info: Inhibition of LPS-stimulated TNFα release from human peripheral blood mononuclear cells (TNFα screen, ELISA)
# Format: cell-based
# Stated Conditions: LPS-stimulated human PBMC, 18 hours incubation, TNFα in supernatant by ELISA
Measurement Type: pIC50
The read-out pIC50 is expressed as -log10 of concentration in moles per litre.

pIC50 reported for this molecule COc1ccc2cccnc2c1S(=O)(=O)N[C@H]1CC[C@@H](NC(=O)c2cccnc2OC2CCSCC2)CC1 [Example 29] : 9.40
